# IC50 Ratio JAK2/JAK1 per record follows
System tested: human JAK1 (a.a. 837-1142)
Protocol description: In vitro JAK kinase assay (HTRF, phosphorylation of a biotinylated peptide), JAK1
Type: biochemical
Condition context: measured at 1 mM ATP; JAK2 IC50 / JAK1 IC50
Respond with the number and no other words.

Examples from the recorded data:
N#CCC1(n2cc(-c3ncnc4[nH]ccc34)cn2)CN(C2CCN(C(=O)c3cc(F)cc(Br)c3)CC2)C1: 7.2
N#CCC1(n2cc(-c3ncnc4[nH]ccc34)cn2)CN(C2CCN(Cc3cccc(Oc4ccccc4)c3)CC2)C1: 2.2
N#CCC1(n2cc(-c3ncnc4[nH]ccc34)cn2)CN(C2CCN(C(=O)c3ccc(-c4ccc(C#N)cc4)cc3)CC2)C1: 6.3
COc1cscc1C(=O)N1CCC(N2CC(CC#N)(n3cc(-c4ncnc5[nH]ccc45)cn3)C2)CC1: 6.6
N#CCC1(n2cc(-c3ncnc4[nH]ccc34)cn2)CN(C2CCN(C(=O)Nc3ccccc3OC(F)(F)F)CC2)C1: 12.0
N#CCC1(n2cc(-c3ncnc4[nH]ccc34)cn2)CN(C2CCN(C(=O)c3cc(Cl)cc(C(F)(F)F)n3)CC2)C1: 9.4

In: Form field: reported IC50 Ratio JAK2/JAK1 of Cc1nc(C(F)(F)F)ccc1NC(=O)N1CCC(N2CC(CC#N)(n3cc(-c4ncnc5[nH]ccc45)cn3)C2)CC1
Out: 4.4

In: Do the same for N#CCC1(n2cc(-c3ncnc4[nH]ccc34)cn2)CN(C2CCN(Cc3ccc(F)c(C#N)c3)CC2)C1 please
Out: 4.4

In: Do the same for N#CCC1(n2cc(-c3ncnc4[nH]ccc34)cn2)CN(C2CCN(C(=O)c3cc(F)c(F)c(F)c3F)CC2)C1 please
Out: 9.1

In: Do the same for N#CCC1(n2ccc(-c3ncnc4[nH]ccc34)c2)CN(C2CCN(C(=O)c3cc(C(F)(F)F)ccc3F)CC2)C1 please
Out: 4.4

In: Do the same for CCOC(=O)N1CCC(N2CC(CC#N)(n3cc(-c4ncnc5[nH]ccc45)cn3)C2)CC1 please
Out: 7.6

In: Do the same for N#CCC1(n2cc(-c3ncnc4[nH]ccc34)cn2)CN(C2CCN(C(=O)c3ccc(-c4cccc5cccnc45)c(F)c3)CC2)C1 please
Out: 5.8

In: Do the same for N#CCC1(n2cc(-c3ncnc4[nH]ccc34)cn2)CN(C2CCN(C(=O)c3ccc(-c4cccnc4)c(F)c3)CC2)C1 please
Out: 3.8

In: Do the same for N#CCC1(n2cc(-c3ncnc4[nH]ccc34)cn2)CN(C2CCN(C(=O)c3c(F)cncc3F)CC2)C1 please
Out: 4.2

In: Do the same for N#CCC1(n2cc(-c3ncnc4[nH]ccc34)cn2)CN(C2CCN(C(=O)Nc3ccc(F)cc3F)CC2)C1 please
Out: 7.5

In: Do the same for N#CCC1(n2ccc(-c3ncnc4[nH]ccc34)c2)CN(C2CCN(C(=O)c3cc(F)ccc3C(F)(F)F)CC2)C1 please
Out: 6.6

----------
System tested: human JAK1 (a.a. 837-1142)
Protocol description: In vitro JAK kinase assay (HTRF, phosphorylation of a biotinylated peptide), JAK1
Format: biochemical
Condition context: measured at 1 mM ATP; JAK2 IC50 / JAK1 IC50
Method: Compounds herein were tested for inhibitory activity of JAK targets according to the following in vitro assay described in Park et al., Analytical Biochemistry 1999, 269, 94-104. […] The phosphorylated peptide was detected by homogenous time resolved fluorescence (HTRF). […] Binding to the Europium labeled antibody took place for 40 minutes and HTRF signal was measured on a Fusion plate reader (Perkin Elmer, Boston, Mass.).
# note: boundary value 4 maps to Not met; IC50 Ratio JAK2/JAK1 below it maps to Met

The examples below pair each entry with its known result.
N#CCC1(n2cc(-c3ncnc4[nH]ccc34)cn2)CN(C2CCN(C(=O)Nc3ccc(C(F)(F)F)cc3)CC2)C1 [Example 167]: Met
N#CCC1(n2cc(-c3ncnc4[nH]ccc34)cn2)CN(C2CCN(C(=O)c3ccccc3)CC2)C1 [Example 9]: Met
Cc1ccc(Cl)cc1NC(=O)N1CCC(N2CC(CC#N)(n3cc(-c4ncnc5[nH]ccc45)cn3)C2)CC1 [Example 168]: Met
N#CCC1(n2cc(-c3ccnc4[nH]ccc34)cn2)CN(C2CCN(C(=O)C3CCC(F)(F)CC3)CC2)C1 [Example 302]: Not met
Cn1c(NC(=O)N2CCC(N3CC(CC#N)(n4cc(-c5ncnc6[nH]ccc56)cn4)C3)CC2)nc2ccccc21 [Example 194]: Met
N#CCC1(n2cc(-c3ncnc4[nH]ccc34)cn2)CN(C2CCN(Cc3cccc(C(F)(F)F)c3F)CC2)C1 [Example 212]: Not met

Kindly consider the entry below.
In: For this compound, is IC50 Ratio JAK2/JAK1 lower than 4? N#CCC1(n2cc(-c3ncnc4[nH]ccc34)cn2)CN(C2CCN(C(=O)Nc3ccsc3)CC2)C1 [Example 179]
Out: Met
